assay: in vitro; conditions: rat, gh3-tre-luc cells, AC50 (uM) modified / 1000
Where a name gives a salt, the structure may show the parent alone.
Assay readout: CC50 at 24 h

- Compound: "CC(=O)CC(=O)Nc1ccc(C)cc1C [N-(2,4-Dimethylphenyl)-3-oxobutanamide]"
  Result: "> 90 µM"
- Compound: "C=CCCCCCCCCCC"
  Result: "> 90 µM"
- Compound: "CC(C)CC(O)Cc1ccccc1 (centres unmarked)"
  Result: "> 90 µM"

Request: Item CCCCCCOC(=O)C(C)C [Hexyl isobutyrate] has what recorded CC50 at 24 h?
Response: > 90 µM

Request: Sample CCOC(=O)OCC/C(SC(=O)OCC)=C(\C)N(C=O)Cc1cnc(C)nc1N [Dicethiamine hydrochloride] — what was its CC50 at 24 h?
Response: > 50 µM

Request: I would be grateful if you could share the reported CC50 at 24 h for CCSC(=O)N(CC)C1CCCCC1 [Cycloate] .
Response: > 90 µM

====

assay: in vitro; conditions: rat, gh3-tre-luc cells, AC50 (uM) modified / 1000
The entries below are paired with their reported CC50 at 24 h.

Request: Entry under review: COc1cc(C(=O)OC(COCCC(C)C)CN2CCOCC2)cc(OC)c1OC (centres unmarked) [Amoproxan] . Reported CC50 at 24 h?
Response: > 50 µM

Request: What does the record list as CC50 at 24 h for O=C1NC(=O)[C@@H]2CC=CC[C@H]12 [1,2,3,6-Tetrahydrophthalimide] ?
Response: > 90 µM

Request: For the compound shown here, O=C(Cl)C(Cl)(Cl)Cl [Trichloroacetyl chloride] , give the reported CC50 at 24 h.
Response: > 90 µM

Request: Which CC50 at 24 h value belongs to c1ccc2c(c1)ccc1c3ccccc3ccc21 [Chrysene] ?
Response: > 40 µM

Request: Requested field: CC50 at 24 h. Item: CC1=CC(=O)[C@H]2C[C@@H]1C2(C)C [L-Verbenone]
Response: > 90 µM

Request: Endpoint output: CC50 at 24 h of c1ccc2c(c1)oc1ccccc12 [Dibenzofuran] . Value?
Response: > 90 µM

Request: Record request: CC50 at 24 h value, item O=C(O)COCC(=O)O [Diglycolic acid]
Response: > 90 µM

Request: // returns reported CC50 at 24 h for input CC/C=C/CCCCCCCCCCOC(C)=O [(E)-11-Tetradecen-1-ol acetate]
Response: > 90 µM

Request: What value of CC50 at 24 h has been reported for the following compound? Cc1ccc(N)c(S(=O)(=O)O)c1 [2-Amino-5-methylbenzenesulfonic acid]
Response: > 90 µM

Request: Which value of CC50 at 24 h has been reported for O=C(O)c1ccc2c(c1)nc(C(=O)NC1CCN(C3CC3)CC1)n2Cc1cc(-c2ccc(Cl)s2)on1 [AVE3247] in the records?
Response: > 20 µM

Request: So what does the record say about CC50 at 24 h for Cc1ccncc1 [4-Methylpyridine] ?
Response: > 100 µM

Request: Find the recorded CC50 at 24 h belonging to Cc1ccc(C(=O)c2ccc(CC(=O)O)n2C)cc1 [Tolmetin sodium dihydrate] and report it.
Response: > 20 µM

====

Known TR_LUC_GH3_Antagonist_viability hitc of a selection of compounds
tested on: GH3-TRE-Luc cell line; test: GH3-TRE-Via cell viability, CellTiter-Fluor (TOX21_TR_LUC_GH3_Antagonist_viability, aeid 805); settings: hit call from tcpl
Field format: numeric only.

# example entries with known answers
- Compound: "O=C(O)Cc1cc(I)c(Oc2cc(I)c(O)c(I)c2)c(I)c1 [Tetrac, 3,3ʹ,5,5ʹ-tetraiodothyroacetic acid]"
  TR_LUC_GH3_Antagonist_viability hitc: 1
- Compound: "N[C@@H](Cc1cc(I)c(Oc2cc(I)c(O)c(I)c2)c(I)c1)C(=O)O [Levothyroxine, reference compound]"
  TR_LUC_GH3_Antagonist_viability hitc: 0
- Compound: "O=C(Cl)OCCOCCOC(=O)Cl [Diethlylene glycol bis chloroformate]"
  TR_LUC_GH3_Antagonist_viability hitc: 0
- Compound: "C[C@]12CC[C@H]3C(=CCc4cc(O)ccc43)[C@@H]1CCC2=O [Equilin, reference compound]"
  TR_LUC_GH3_Antagonist_viability hitc: 1
- Compound: "Cl.NC(CO)(CO)CO [Tromethamine hydrochloride]"
  TR_LUC_GH3_Antagonist_viability hitc: 0
- Compound: "COc1cc(C)c(/C=C/C(C)=C/C=C/C(C)=C/C(=O)O)c(C)c1C [Acitretin, reference compound]"
  TR_LUC_GH3_Antagonist_viability hitc: 0

Request: Would you kindly share the measured TR_LUC_GH3_Antagonist_viability hitc for C=C(NC(=O)C(=C)NC(=O)c1csc(C2=N[C@@H]3c4csc(n4)[C@H]4NC(=O)c5csc(n5)[C@H]([C@](C)(O)[C@@H](C)O)NC(=O)[C@H]5CSC(=N5)/C(=C/C)NC(=O)[C@H]([C@@H](C)O)NC(=O)c5csc(n5)[C@]3(CC2)NC(=O)[C@H](C)NC(=O)C(=C)NC(=O)[C@H](C)NC(=O)[C@H]([C@@H](C)CC)N[C@@H]2C=Cc3c([C@H](C)O)cc(nc3[C@H]2O)C(=O)O[C@@H]4C)n1)C(N)=O [Thiostrepton] ?
Response: 0

Request: Returns the measured TR_LUC_GH3_Antagonist_viability hitc for the input compound. Input: `CC1(C)COP(Oc2ccccc2)OC1`
Response: 0

Request: What does the record list as TR_LUC_GH3_Antagonist_viability hitc for CNC(=O)ON=C(CSC)C(C)(C)C [Thiofanox] ?
Response: 0
